molecular target: UniProt:Q969F8; assay: Human KISS1R binding assay (membrane competition binding); conditions: 90 min at room temperature; competition with 0.2 nM [125I]-metastin (45-54); Flp-In T-Rex 293 kisspeptin membranes; metal complexes nonradioactive Ga, In, Lu; read-out: hKiSSR Binding Ki (90 min)
Square brackets hold non-standard residues; d marks the D form. Peptide text beside a SMILES is read from it. * marks the point of attachment. DOTA = O=C(O)CN1CCN(CC(=O)O)CCN(CC(=O)*)CCN(CC(=O)O)CC1; Gly(N-(3-F-4-Me-benzyl)) = Cc1ccc(CNCC(=O)*)cc1F; Propanoyl(3-(MeO(CH2CH2O)2)) = COCCOCCOCCC(=O)*; Gly(Nα-4-MeO-benzyl) = COc1ccc(CNCC(=O)*)cc1; Butanoyl(4-(4-MePh)) = Cc1ccc(CCCC(=O)*)cc1; Api(1-amidino) = N=C(N)N1CCC(N)(C(=O)O)CC1; HO(CH2CH2O)2CH2CH2CO = O=C(CCOCCOCCO)*; 2Nal = N[C@@H](Cc1ccc2ccccc2c1)C(=O)O; d2Nal = N[C@H](Cc1ccc2ccccc2c1)C(=O)O; dCya = N[C@H](CS(=O)(=O)O)C(=O)O; 4Pal = N[C@@H](Cc1ccncc1)C(=O)O; d4Pal = N[C@H](Cc1ccncc1)C(=O)O; Api = NC1(C(=O)O)CCNCC1; Ahx = NCCCCCC(=O)O; azaGly = NNC(=O)O
measured.attribute: Ki

Answered examples (2):
compound="Cc1ccc(CNCC(=O)N2CCC(NC(=O)[C@H](CC(C)C)NC(=O)NNC(=O)[C@H](Cc3ccccc3)NC(=O)CCCCCNC(=O)[C@@H](CS(=O)(=O)O)NC(=O)[C@@H](CS(=O)(=O)O)NC(=O)CN3CCN(CC(=O)O)CCN(CC(=O)O)CCN(CC(=O)O)CC3)(C(=O)N[C@@H](Cc3c[nH]c4ccccc34)C(N)=O)CC2)cc1F [Compound 130] ({DOTA}-[dCya][dCya][Ahx]F[azaGly]L[Api](Gly(N-(3-F-4-Me-benzyl)))W-NH2)" result="< 10 nM"
compound="COc1ccc(CNCC(=O)N2CCC(NC(=O)[C@@H](CC(C)C)NC(=O)NNC(=O)[C@H](Cc3ccccc3)NC(=O)[C@@H](NC(=O)[C@H](CC(N)=O)NC(=O)[C@H](CCC(=O)O)NC(=O)CN3CCN(CC(=O)O)CCN(CC(=O)O)CCN(CC(=O)O)CC3)[C@@H](C)O)(C(=O)N[C@@H](Cc3ccccc3)C(N)=O)CC2)cc1 [Compound 239] ({DOTA}-ENTF[azaGly][dL][Api](Gly(Nα-4-MeO-benzyl))F-NH2)" result="> 100 nM"

Task: What value of Ki has been reported for the following compound? Cc1ccc(CNCC(=O)N2CCC(NC(=O)[C@H](CC(C)C)NC(=O)NNC(=O)[C@H](Cc3ccccc3)NC(=O)[C@@H](NC(=O)[C@H](CC(N)=O)NC(=O)[C@H](Cc3ccc4ccccc4c3)NC(=O)[C@@H](Cc3ccc(O)cc3)NC(=O)CCCCCNC(=O)CN3CCN(CC(=O)O)CCN(CC(=O)O)CCN(CC(=O)O)CC3)[C@@H](C)O)(C(=O)N[C@@H](Cc3c[nH]c4ccccc34)C(N)=O)CC2)cc1F [Compound 118] ({DOTA-Ahx}-[dY][2Nal]NTF[azaGly]L[Api](Gly(N-(3-F-4-Me-benzyl)))W-NH2)
Output: < 10 nM

Task: For Cc1ccc(CNCC(=O)N2CCC(NC(=O)[C@H](CC(C)C)NC(=O)NNC(=O)[C@H](Cc3ccccc3)NC(=O)[C@@H](NC(=O)[C@H](CC(N)=O)NC(=O)[C@H](CCC(=O)O)NC(=O)CCCCCNC(=O)CN3CCN(CC(=O)O)CCN(CC(=O)O)CCN(CC(=O)O)CC3)[C@@H](C)O)(C(=O)N[C@@H](Cc3c[nH]c4ccccc34)C(N)=O)CC2)cc1F [Compound 238] ({DOTA-Ahx}-ENTF[azaGly]L[Api](Gly(N-(3-F-4-Me-benzyl)))W-NH2) , what is its reported Ki?
Output: < 10 nM

Task: Please give the measured Ki for this compound: Cc1ccc(CCCC(=O)NCCCC[C@@H](NC(=O)CCCCCNC(=O)CN2CCN(CC(=O)O)CCN(CC(=O)O)CCN(CC(=O)O)CC2)C(=O)N[C@H](Cc2ccc(O)cc2)C(=O)N[C@H](Cc2ccc3ccccc3c2)C(=O)N[C@@H](CC(N)=O)C(=O)N[C@H](C(=O)N[C@@H](Cc2ccccc2)C(=O)NNC(=O)N[C@@H](CC(C)C)C(=O)NC2(C(=O)N[C@@H](Cc3ccccc3)C(N)=O)CCN(C(=N)N)CC2)[C@@H](C)O)cc1 [Compound 309] ({DOTA-Ahx}-[dK](Butanoyl(4-(4-MePh)))[dY][d2Nal]NTF[azaGly]L[Api(1-amidino)]F-NH2)
Output: < 10 nM

Task: Recorded Ki for Cc1ccc(CNCC(=O)N2CCC(NC(=O)[C@H](CC(C)C)NC(=O)NNC(=O)[C@H](Cc3ccccc3)NC(=O)[C@@H](NC(=O)[C@H](CC(N)=O)NC(=O)[C@@H](Cc3ccncc3)NC(=O)[C@@H](Cc3ccc(O)cc3)NC(=O)CCCCCNC(=O)CN3CCN(CC(=O)O)CCN(CC(=O)O)CCN(CC(=O)O)CC3)[C@@H](C)O)(C(=O)N[C@@H](Cc3c[nH]c4ccccc34)C(N)=O)CC2)cc1F [Compound 31] ({DOTA-Ahx}-[dY][d4Pal]NTF[azaGly]L[Api](Gly(N-(3-F-4-Me-benzyl)))W-NH2) , please?
Output: < 10 nM

Task: Value lookup for Ki; key = Cc1ccc(CNCC(=O)N2CCC(NC(=O)[C@H](CC(C)C)NC(=O)NNC(=O)[C@H](Cc3ccccc3)NC(=O)[C@@H](NC(=O)[C@H](CCC(=O)O)NC(=O)[C@H](CCCCNC(=O)CN3CCN(CC(=O)O)CCN(CC(=O)O)CCN(CC(=O)O)CC3)NC(=O)CCOCCOCCO)[C@@H](C)O)(C(=O)N[C@@H](Cc3ccncc3)C(N)=O)CC2)cc1F [Compound 252] ({HO(CH2CH2O)2CH2CH2CO}-K(DOTA)ETF[azaGly]L[Api](Gly(N-(3-F-4-Me-benzyl)))[4Pal]-NH2)
Output: > 100 nM

Task: For the compound COCCOCCOCCC(=O)N[C@H](Cc1ccc(O)cc1)C(=O)N[C@@H](CCCCNC(=O)CN1CCN(CC(=O)O)CCN(CC(=O)O)CCN(CC(=O)O)CC1)C(=O)N[C@@H](CC(N)=O)C(=O)N[C@H](C(=O)N[C@@H](Cc1ccccc1)C(=O)NNC(=O)N[C@@H](CC(C)C)C(=O)NC1(C(=O)N[C@@H](Cc2c[nH]c3ccccc23)C(N)=O)CCN(C(=N)N)CC1)[C@@H](C)O [Compound 197] ({Propanoyl(3-(MeO(CH2CH2O)2))}-[dY]K(DOTA)NTF[azaGly]L[Api(1-amidino)]W-NH2) , what Ki is on record?
Output: < 10 nM

Task: Would you mind telling me what Ki value was observed for Cc1ccc(CNCC(=O)N2CCC(NC(=O)[C@H](CC(C)C)NC(=O)NNC(=O)[C@H](Cc3ccccc3)NC(=O)CCCCCNC(=O)[C@@H](Cc3ccncc3)NC(=O)[C@@H](Cc3ccc(O)cc3)NC(=O)CN3CCN(CC(=O)O)CCN(CC(=O)O)CCN(CC(=O)O)CC3)(C(=O)N[C@@H](Cc3c[nH]c4ccccc34)C(N)=O)CC2)cc1F [Compound 186] ({DOTA}-[dY][d4Pal][Ahx]F[azaGly]L[Api](Gly(N-(3-F-4-Me-benzyl)))W-NH2) ?
Output: < 10 nM

---

target: human kisspeptin receptor (Homo sapiens (Human), UniProt Q969F8); assay: Human KISS1R binding assay (membrane competition binding); details: 90 min at room temperature; competition with 0.2 nM [125I]-metastin (45-54); Flp-In T-Rex 293 kisspeptin membranes; metal complexes nonradioactive Ga, In, Lu; read-out: hKiSSR Binding Ki (90 min)
Sequence (Q969F8 whole entry): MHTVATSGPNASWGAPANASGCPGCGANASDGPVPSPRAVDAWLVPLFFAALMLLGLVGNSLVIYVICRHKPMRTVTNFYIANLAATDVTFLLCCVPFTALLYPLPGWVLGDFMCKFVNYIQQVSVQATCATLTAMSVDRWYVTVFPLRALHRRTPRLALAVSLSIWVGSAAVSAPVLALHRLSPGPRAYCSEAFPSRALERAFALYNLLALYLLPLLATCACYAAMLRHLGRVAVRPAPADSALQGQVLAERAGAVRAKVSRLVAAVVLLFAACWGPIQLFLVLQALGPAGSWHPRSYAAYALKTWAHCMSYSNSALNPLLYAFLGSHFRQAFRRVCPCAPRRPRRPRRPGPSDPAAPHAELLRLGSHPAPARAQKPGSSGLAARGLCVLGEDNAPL
pKi: −log10 of the molar value. Square brackets hold non-standard residues; d marks the D form. Peptide text beside a SMILES is read from it. * marks the point of attachment. DOTA = O=C(O)CN1CCN(CC(=O)O)CCN(CC(=O)*)CCN(CC(=O)O)CC1; Gly(N-(3-F-4-Me-benzyl)) = Cc1ccc(CNCC(=O)*)cc1F; Butanoyl(4-(4-I-phenyl)) = O=C(CCCc1ccc(I)cc1)*; Api(1-amidino) = N=C(N)N1CCC(N)(C(=O)O)CC1; d2Nal = N[C@H](Cc1ccc2ccccc2c1)C(=O)O; d4Pal = N[C@H](Cc1ccncc1)C(=O)O; Cha = N[C@@H](CC1CCCCC1)C(=O)O; Api = NC1(C(=O)O)CCNCC1; azaGly = NNC(=O)O; Sar = CNCC(=O)O
Recorded pKi, one value per entry.

Solved entries (count: 2):
compound="CNCC(=O)N1CCC(NC(=O)[C@H](CC(C)C)NC(=O)NNC(=O)[C@H](Cc2ccccc2)NC(=O)[C@@H](NC(=O)[C@H](CC(N)=O)NC(=O)[C@@H](Cc2ccc3ccccc3c2)NC(=O)[C@@H](Cc2ccc(O)cc2)NC(=O)CCCc2ccc(I)cc2)[C@@H](C)O)(C(=O)N[C@@H](Cc2ccc(O)cc2)C(N)=O)CC1 [Compound 399] ({Butanoyl(4-(4-I-phenyl))}-[dY][d2Nal]NTF[azaGly]L[Api](Sar)Y-NH2)" measured_attribute=pKi result="> 8.00"
compound="CC(C)C[C@H](NC(=O)NNC(=O)[C@H](Cc1ccccc1)NC(=O)[C@@H](NC(=O)[C@H](CC(N)=O)NC(=O)[C@@H](Cc1ccc2ccccc2c1)NC(=O)CN1CCN(CC(=O)O)CCN(CC(=O)O)CCN(CC(=O)O)CC1)[C@@H](C)O)C(=O)NC1(C(=O)N[C@@H](Cc2ccccc2)C(N)=O)CCN(C(=N)N)CC1 [Compound 302] ({DOTA}-[d2Nal]NTF[azaGly]L[Api(1-amidino)]F-NH2)" measured_attribute=pKi result="> 8.00"

Task: Dear colleague, I am looking for the recorded pKi of the following compound: Cc1ccc(CNCC(=O)N2CCC(NC(=O)[C@H](CC(C)C)NC(=O)NNC(=O)[C@H](CC3CCCCC3)NC(=O)[C@@H](NC(=O)[C@H](CC(N)=O)NC(=O)[C@@H](Cc3ccncc3)NC(=O)[C@@H](Cc3ccc(O)cc3)NC(=O)CN3CCN(CC(=O)O)CCN(CC(=O)O)CCN(CC(=O)O)CC3)[C@@H](C)O)(C(=O)N[C@@H](Cc3c[nH]c4ccccc34)C(N)=O)CC2)cc1F [Compound 315] ({DOTA}-[dY][d4Pal]NT[Cha][azaGly]L[Api](Gly(N-(3-F-4-Me-benzyl)))W-NH2)
Output: > 8.00

Data origin, for the record: patent US20250312499A1
